# Test system: HOP-62
# TEST_DETAILS: NCI tumour cell line growth inhibition, 48 h
Active and inactive are the calls of the source. No stated cut-off is given here; in the data, active = GI50 up to about 1.1 µM and inactive = higher.
Give GI50 for every item shown.

The compound "C[Si](C)(c1ccccc1)C1CC(=O)CC(=O)C1" showed GI50 equal to > 100 µM (inactive)

The compound "O=C1N=C(c2ccccc2)O/C1=C\c1ccccc1" showed GI50 equal to > 100 µM (inactive)

The compound O=C1CCC2C(O)c3cc4c(cc3C(c3ccc5c(c3)OCO5)N12)OCO4 (centres undefined) showed GI50 equal to 25 µM (inactive)

The compound CN(C)C(=O)Oc1ccc[n+](C)c1 [PYRIDOSTIGMINE BROMIDE] showed GI50 equal to > 100 µM (inactive)

The compound "COc1ccc(C[C@@H]2Cc3cc(OC)c(OC)cc3CN2C)cc1" showed GI50 equal to > 100 µM (inactive)

The compound O=[N+]([O-])c1cccc(C2ON2C2CCCCC2)c1 (centres undefined) showed GI50 equal to 31.1 µM (inactive)

The compound "COc1ccc2c(c1)Cc1cc(/N=[N+](\[O-])c3ccc4c(c3)Cc3cc(OC)ccc3-4)ccc1-2" showed GI50 equal to 43.9 µM (inactive)

The compound Cc1cccc2c1CC(C1OC(=O)c3c(C)cccc31)C2=O (centres undefined) showed GI50 equal to > 100 µM (inactive)

The compound "CC1(C)OCC(CO)(Nc2nc(N3CC3)nc(N3CC3)n2)CO1" showed GI50 equal to 5.53 µM (inactive)

The compound CC1OC2OC3C(OCC(O)C3O)OC(=O)[C@]34CCC(C)(C)CC3C3=CCC5[C@@]6(C)C[C@H](O)[C@H](OC7OC(CO)C(O)C(O)C7OC7OC(COC(=O)CC(C)(O)CC(=O)OC1C(OC1OC(CO)C(O)C(O)C1O)C2O)C(O)C(O)C7O)[C@@](C)(CO)C6CC[C@@]5(C)[C@]3(C)CC4 (some centres undefined) showed GI50 equal to 1.46 µM (inactive)

The compound CC(=O)O[C@H]1CCc2c(cc(N)c3c2C(=O)C[C@]2(C)C([C@H](C)CCCC(C)C)CCC32C)C1(C)C (some centres undefined) showed GI50 equal to > 100 µM (inactive)

The compound CC1CC[C@]2(C(=O)O)CCC3(C)C(=C2[C@H]1C)C=CC1[C@@]2(C)CC[C@H](O)C(C)(C)C2CC[C@]13C (some centres undefined) showed GI50 equal to 21.1 µM (inactive)

The compound "Cc1ccc(C)n1-n1c(Cc2ccccc2)n[nH]c1=O" showed GI50 equal to > 100 µM (inactive)

The compound CCCC(O)c1cn(-c2cccc(S(=O)(=O)O)c2)nn1 (centres undefined) showed GI50 equal to > 100 µM (inactive)

The compound "CCOC(=O)/C(C#N)=C\C=C1/C=CN=C2NCCN21" showed GI50 equal to > 100 µM (inactive)

The compound "Cc1nn2c(=O)c([N+](=O)[O-])c(/C=C/c3ccc(F)cc3)nc2s1" showed GI50 equal to 15 µM (inactive)

The compound "COc1cc(OC(=O)c2ccccc2)cc2c1C(=O)C=CC2=O" showed GI50 equal to 42.9 µM (inactive)

The compound "c1ccc2c(NCCCCCCCCNc3cccc4ccccc34)cccc2c1" showed GI50 equal to > 100 µM (inactive)

The compound "CCCCCCCCCCCCCCCCCCNC(=S)NC=C1C(=O)c2ccccc2C1=O" showed GI50 equal to 9.86 µM (inactive)

The compound COc1ccc(C2OC(c3ccncc3)=NN2C)cc1OC (centres undefined) showed GI50 equal to 94.6 µM (inactive)

The compound "CN1c2ccccc2C(=O)Nc2cnc(Cl)nc21" showed GI50 equal to 31.1 µM (inactive)

The compound "CCCNc1[nH]c(C(C)=O)c(N)c1C(=S)Nc1ccccc1" showed GI50 equal to 42 µM (inactive)

The compound Cc1ccc(S(=O)(=O)NNC2(NS(=O)(=O)c3ccc(Cl)cc3)C(Cl)=C(Cl)C(=O)c3ccccc32)cc1 (centres undefined) showed GI50 equal to 21.3 µM (inactive)

The compound "Clc1ccc(CCN2CCN(CCCc3ccccc3)CC2)cc1Cl" showed GI50 equal to 18.5 µM (inactive)

The compound "COc1cccc2c(=O)oc(-c3ccc(C(C)(C)C)cc3)nc12" showed GI50 equal to 48.2 µM (inactive)

The compound "O=C1CN(c2ccccc2)C(=O)CN1NCNN1CC(=O)N(c2ccccc2)CC1=O" showed GI50 equal to > 100 µM (inactive)

The compound "O=C1O/C(=C\c2ccc(O)cc2)C(c2ccc(O)c(Cl)c2)=C1Cl" showed GI50 equal to 35.4 µM (inactive)

The compound "COc1cccc(/C=C/c2cnc3ccccc3n2)c1OC" showed GI50 equal to 24.7 µM (inactive)

The compound "Cc1cc2c(cc1Cl)Sc1nnc(Nc3ccccc3)n1S2(=O)=O" showed GI50 equal to 3.64 µM (inactive)

The compound "N#CC(C#N)=C/C=C/c1ccccc1[N+](=O)[O-]" showed GI50 equal to > 10 µM (inactive)

The compound CCOC(=O)C(C)c1nc2cc3cccnc3c(Cl)c2[nH]c1=O (centres undefined) showed GI50 equal to > 100 µM (inactive)

The compound Cc1ccccc1C(C#N)/C(=N/NC(=O)c1cc2ccccc2cc1O)C(=O)Nc1cccc(Cl)c1 (centres undefined) showed GI50 equal to 27.5 µM (inactive)

The compound CCOC(=O)[C@H]1Nc2ccc(O)cc2C2c3ccccc3CC21 (some centres undefined) showed GI50 equal to > 100 µM (inactive)

The compound "CCc1c2c([nH]c(=S)c1C#N)CCC2" showed GI50 equal to > 100 µM (inactive)

The compound COP(=O)(OC)C(O)CC(C)C (centres undefined) showed GI50 equal to > 100 µM (inactive)

The compound C=C1C(=O)OC2C1C(=O)C/C(C)=C/CCC1(C)OC21 (centres undefined) showed GI50 equal to 14.2 µM (inactive)

The compound "O=C1c2ccccc2CC12CCC1(CC2)OCCO1" showed GI50 equal to > 100 µM (inactive)

The compound "CC(C)OC1=C(CC2(C)OCCO2)C(=O)C12OCCO2" showed GI50 equal to > 100 µM (inactive)

The compound Cc1[nH]c(=O)[nH]c(=O)c1/C=C/C(=O)NC(CO)CC(C)C (centres undefined) showed GI50 equal to > 375 µM (inactive)

Entry source: ChEMBL document CHEMBL1201862
